Reported hGLP1R cAMP EC50 ratio values are given for each entry in this list.
- Tested Target: human GLP-1 receptor (GLP-1R) (human, UniProt P43220 24-463)
- Assay Protocol: cell-based or functional assay
Numbered stars: 1 amine (or outer) side, 2 acyl side, 3 side chain; on linkers, the order of the positions; unused ones are H or OH. Square brackets hold non-standard residues; d marks the D form. Side chains are listed from the residue outwards. Ends that are not written are not given here. * marks the point of attachment. C20 diacid = O=C(O)CCCCCCCCCCCCCCCCCCC(=O)*; αMePhe(2-F) = C[C@](N)(Cc1ccccc1F)C(=O)O; γGlu = O=C(O)[C@H](CCC(=O)[*:2])N[*:1]; αMeF = C[C@](N)(Cc1ccccc1)C(=O)O; AEEA = NCCOCCOCC(=O)O; Aib = CC(C)(N)C(=O)O

{"Binder": "Y[Aib]EGT[αMeF]TSDYSIXLDKK([AEEA-AEEA-γGlu-C20 diacid])AQ[Aib]TFIEYLIEGGPSSGAPPPS-NH2 (not fully specified (residue 13); printed as Y-Aib-EGT-αMeF-TSDYSI-αMeF-LDKK((2-[2-(2-Amino-ethoxy)-ethoxy]-acetyl)2-(γ-Glu)-CO-(CH2)18-CO2H)AQ-Aib-TFIEYLIEGGPSSGAPPPS-NH2) [Example 139]", "Attribute Measured": "hGLP1R cAMP EC50 ratio", "Recorded Result": 1.13}
{"Binder": "Y[Aib]EGT[αMePhe(2-F)]TSD[αMeF]SIXLDEKAQ[Aib]EFIEYLIEGGPSSGAPPPS-NH2 (not fully specified (residues 13, 17); printed as Y-Aib-EGT-αMeF(2F)-TSD-αMeF-SI-αMeF-LDEK((2-[2-(2-Amino-ethoxy)-ethoxy]-acetyl)2-(γ-Glu)-CO-(CH2)18-CO2H)AQ-Aib-EFIEYLIEGGPSSGAPPPS-NH2) [Example 159]", "Attribute Measured": "hGLP1R cAMP EC50 ratio", "Recorded Result": 0.176}
{"Binder": "Y[Aib]EGT[αMeF]TSDYSIXLDEK([AEEA-AEEA-γGlu-C20 diacid])AQ[Aib]EFIEYLIEGGPSSG-NH2 (not fully specified (residue 13); printed as Y-Aib-EGT-αMeF-TSDYSI-αMeF-LDEK((2-[2-(2-Amino-ethoxy)-ethoxy]-acetyl)2-(γ-Glu)-CO-(CH2)18-CO2H)AQ-Aib-EFIEYLIEGGPSSG-NH2) [Example 124]", "Attribute Measured": "hGLP1R cAMP EC50 ratio", "Recorded Result": 1.29}
{"Binder": "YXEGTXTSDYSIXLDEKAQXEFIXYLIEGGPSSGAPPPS (Y-Aib-EGT-αMeF(2F)-TSDYSI-Aib-LDEK((2-[2-(2-Amino-ethoxy)-ethoxy]-acetyl)2-(γ-Glu)-CO-(CH2)18-CO2H)AQ-Aib-EFI-(D-Glu)-YLIEGGPSSGAPPPS-NH2) [Example 224]", "Attribute Measured": "hGLP1R cAMP EC50 ratio", "Recorded Result": 1.06}
{"Binder": "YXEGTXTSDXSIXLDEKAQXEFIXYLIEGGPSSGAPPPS (Y-Aib-EGT-αMeF(2F)-TSD-(D-His)-SI-αMeF-LDEK((2-[2-(2-Amino-ethoxy)-ethoxy]-acetyl)2-(γ-Glu)-CO-(CH2)18-CO2H)AQ-Aib-EFI-(D-Glu)-YLIEGGPSSGAPPPS-NH2) [Example 185]", "Attribute Measured": "hGLP1R cAMP EC50 ratio", "Recorded Result": 0.00739}

Please supply the value of reported hGLP1R cAMP EC50 ratio for the item Y[Aib]EGT[αMeF]TSDYSIXLDKKAQ[Aib]DFIEYLIEGGPSSGAPPPS-NH2 (not fully specified (residues 13, 17); printed as Y-Aib-EGT-αMeF-TSDYSI-αMeF-LDKK((2-[2-(2-Amino-ethoxy)-ethoxy]-acetyl)2-(γ-Glu)-CO-(CH2)18-CO2H)AQ-Aib-DFIEYLIEGGPSSGAPPPS-NH2) [Example 140]
1.16

Please supply the value of reported hGLP1R cAMP EC50 ratio for the item YXEGTXTSDLSILLDKKAQXAFIEYLIEGGPSSGAPPPS (Y-Aib-EGT-αMeF-TSDLSILLDKK((2-[2-(2-Amino-ethoxy)-ethoxy]-acetyl)2-(γ-Glu)-CO-(CH2)18-CO2H)AQ-Aib-AFIEYLIEGGPSSGAPPPS-NH2) [Example 129]
0.543

Each recorded value in this set is attributed to patent US20220048967A1.
